# system_tested: 5-hydroxytryptamine receptor 1A (Homo sapiens, UniProt P08908)
# Sequence (P08908 whole entry): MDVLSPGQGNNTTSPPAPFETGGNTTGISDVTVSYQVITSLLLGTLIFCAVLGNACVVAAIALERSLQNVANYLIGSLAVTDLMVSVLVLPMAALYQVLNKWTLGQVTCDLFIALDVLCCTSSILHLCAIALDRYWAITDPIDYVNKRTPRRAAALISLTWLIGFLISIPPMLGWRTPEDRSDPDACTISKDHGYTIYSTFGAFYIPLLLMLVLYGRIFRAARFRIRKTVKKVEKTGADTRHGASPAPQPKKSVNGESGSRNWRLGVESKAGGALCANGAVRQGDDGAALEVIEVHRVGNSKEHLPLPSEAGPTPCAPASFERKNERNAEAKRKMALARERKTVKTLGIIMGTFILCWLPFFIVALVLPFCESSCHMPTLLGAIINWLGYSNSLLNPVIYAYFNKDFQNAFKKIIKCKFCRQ
# assay_protocol: Displacement of [3H]8-OH-DPAT from human recombinant 5HT1A receptor expressed in HEK293-EBNA cells
pKi: −log10 of the molar value.
measurement_kind: pKi

> print(dat)
                                   compound                             system.tested  obs.value
1  CCC1NC(N)=Nc2cccc(Cl)c21 (centres undefined)  5-hydroxytryptamine receptor 1A (Homo sapiens, UniProt P08908)       5.97

1: CNC1=Nc2c(OC(C)C)cccc2C(C)N1 (centres undefined)
2: NC1=Nc2cccc(Cl)c2CN1
3: COc1cc(Cl)c(C)c2c1N=C(N)NC2C (centres undefined)
Query string: // sort entries: pKi, high to low Give your ranking as a list of the labels in the requested order.
Result string: 3, 1, 2

1: CC1NC(N)=Nc2c(Cl)ccc(Cl)c21 (centres undefined)
2: CCC1NC(N)=Nc2ccc(Cl)c(Cl)c21 (centres undefined)
Query string: Would you mind telling me which has the lower recorded pKi between 1 and 2 ? Lab log: write the label of the selected item as the result.
Result string: 2
